- test_description: in vivo
- Format: in vivo
- conditions: mouse, in vivo, po, 20 mg/kg
observation_type: AUC(0-inf) (ng·h/mL)

# molecule, unit_spec, readout_number
data = [
    ("CCN(CC)CCNC(=O)c1c(C)[nH]c(/C=C2\\C(=O)Nc3ccc(F)cc32)c1C.O=C(O)C[C@H](O)C(=O)O [Sunitinib, reference compound]", "ng·h/mL", 43.1),
]

====

- Tested on: A549 human non-small cell lung cancer cell line
- test_description: 72-hour (long term) cell killing effects
- Assay type: cell-based
- conditions: CCK8
Quick reference for IC50 among some compounds
observation_type: IC50 (µM)

# smiles_code, observation_type, unit_spec, readout_number
rows = [
    ("CCN(CC)CCNC(=O)c1c(C)[nH]c(/C=C2\\C(=O)N(COC(=O)C(C)C)c3ccc(F)cc32)c1C", "IC50", "µM", 9.07),
    ("CCOC(=O)OCN1C(=O)/C(=C\\c2[nH]c(C)c(C(=O)NCCN(CC)CC)c2C)c2cc(F)ccc21", "IC50", "µM", 1.11),
    ("CCN(CC)CCNC(=O)c1c(C)[nH]c(/C=C2\\C(=O)N(COC(=O)c3ccc(OC)cc3)c3ccc(F)cc32)c1C", "IC50", "µM", 3),
    ("CCN(CC)CCNC(=O)c1c(C)[nH]c(/C=C2\\C(=O)N(COC(C)=O)c3ccc(F)cc32)c1C", "IC50", "µM", 7.46),
]

====

- test_description: in vivo
- conditions: mouse, in vivo, iv, 5.14 mg/kg
observation_type: clearance (mL/min)

# compound, observation_type, unit_spec, readout_number
measured = [
    ("CCN(CC)CCNC(=O)c1c(C)[nH]c(/C=C2\\C(=O)Nc3ccc(F)cc32)c1C.O=C(O)C[C@H](O)C(=O)O [Sunitinib, reference compound]", "clearance", "mL/min", 4.51),
]

====

- test_description: in vivo
- Type: in vivo
- conditions: mouse, in vivo, po
observation_type: AUC (ng·h/mL)

# compound, observation_type, unit_spec, readout_number
rows = [
    ("CCN(CC)CCNC(=O)c1c(C)[nH]c(/C=C2\\C(=O)Nc3ccc(F)cc32)c1C.O=C(O)C[C@H](O)C(=O)O [Sunitinib, reference compound]", "AUC", "ng·h/mL", 214),
]

====

- Tested on: A549 human non-small cell lung cancer cell line
- test_description: 72-hour (long term) cell killing effects
- Format: cell-based
- conditions: CCK8
- Method: Cell lines and Culture: Cell line A549 was cultured in DMEM medium (Gibco, Life Technologies, China). 10% HI fetal bovine serum was purchased from Gibco, Life Technologies, USA and 1% penicillin/streptomycin was obtained from Hyclone. Approx. 2,000 cells in 50 μL complete medium were plated on each well of a 96-well plate and incubated at 37° C., 5% CO2 overnight. […] The OD values were obtained by TECAN Microplate Reader at 450 nm. […]

# compound, IC50
measured = [
    ("CCN(CC)CCNC(=O)c1c(C)[nH]c(/C=C2\\C(=O)N(COC(=O)C3CC3)c3ccc(F)cc32)c1C [Compound 11]", "2.56 µM"),
    ("CCN(CC)CCNC(=O)c1c(C)[nH]c(/C=C2\\C(=O)N(COC(=O)OC(C)(C)C)c3ccc(F)cc32)c1C [Compound 7]", "1.79 µM"),
    ("CCN(CC)CCNC(=O)c1c(C)[nH]c(/C=C2\\C(=O)N(COC(=O)N(C)C)c3ccc(F)cc32)c1C [Compound 6]", "8.46 µM"),
    ("CCN(CC)CCNC(=O)c1c(C)[nH]c(/C=C2\\C(=O)N(COC(=O)C3CCCCC3)c3ccc(F)cc32)c1C [Compound 9]", "4 µM"),
]

====

- test_description: in vivo
- Format: in vivo
- conditions: mouse, in vivo, po, 20 mg/kg
observation_type: Cmax (ng/mL)

# compound, unit_spec, readout_number
measured = [
    ("CCN(CC)CCNC(=O)c1c(C)[nH]c(/C=C2\\C(=O)Nc3ccc(F)cc32)c1C.O=C(O)C[C@H](O)C(=O)O [Sunitinib, reference compound]", "ng/mL", 9.58),
]

====

- test_description: in vivo
- conditions: mouse, in vivo, iv, 5.14 mg/kg, AUCall

# molecule, AUC [ng·h/mL]
records = [
    ("CCN(CC)CCNC(=O)c1c(C)[nH]c(/C=C2\\C(=O)Nc3ccc(F)cc32)c1C.O=C(O)C[C@H](O)C(=O)O [Sunitinib, reference compound]", 365),
]

====

- test_description: in vivo
- Format: in vivo
- conditions: mouse, in vivo, po, 20 mg/kg
observation_type: Tmax (min)

# compound, unit_spec, readout_number
measured = [
    ("CCN(CC)CCNC(=O)c1c(C)[nH]c(/C=C2\\C(=O)Nc3ccc(F)cc32)c1C.O=C(O)C[C@H](O)C(=O)O [Sunitinib, reference compound]", "min", 30),
]

====

- test_description: in vivo
- conditions: mouse, in vivo, iv, AUCiv

# compound, unit_spec, AUC
rows = [
    ("CCN(CC)CCNC(=O)c1c(C)[nH]c(/C=C2\\C(=O)Nc3ccc(F)cc32)c1C.O=C(O)C[C@H](O)C(=O)O [Sunitinib, reference compound]", "ng·h/mL", 365),
]

====

- test_description: Pharmacokinetics and organ distribution after intravenous administration of Sunitinib, Compound 1 and Compound 2 in mice
- conditions: mouse, in vivo, 5.14 mg/kg

# molecule, half-life
rows = [
    ("CCN(CC)CCNC(=O)c1c(C)[nH]c(/C=C2\\C(=O)Nc3ccc(F)cc32)c1C.O=C(O)C[C@H](O)C(=O)O [Sunitinib, reference compound]", "1.24 h"),
]

====

- test_description: in vivo
- conditions: mouse, in vivo, iv, 5.14 mg/kg

# compound, Tmax, min
data = [
    ("CCN(CC)CCNC(=O)c1c(C)[nH]c(/C=C2\\C(=O)Nc3ccc(F)cc32)c1C.O=C(O)C[C@H](O)C(=O)O [Sunitinib, reference compound]", 4.8),
]
